test system: glucose-6-phosphate dehydrogenase-6-phosphogluconolactonase (Plasmodium falciparum 3D7); test: inhibition of malaria parasite G6PD (PfGluPho) – biochemical, fluorescence intensity, uHTS, primary screen (AID 504690); conditions: PfGluPho enzyme, NADPH resazurin-diaphorase fluorescence; at 20 µM
Screen size: about 350,000 compounds; about 2,700 (0.77%) were called active.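 The calls were made as follows: active = inhibition reaching at least a set limit at 20 µM in the primary screen (cut at about 59% in these data); inactive = the rest.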 Many of the other results were omitted from the sample, so actives are more common in it than they were.
Write down one outcome, taken from yes (active), no (inactive)

Consider the worked cases shown below.
Prompt: // return assay outcome for "CCn1c(SCC(=O)Nc2sc(C)c(C)c2C#N)nnc1C1CC1"
Completion: no

Prompt: Test call, this compound: O=C(NCCc1ccccc1)C(=O)NCC1OCCN1S(=O)(=O)c1cccs1 (stereo unspecified)
Completion: no

Prompt: Record lookup: outcome of this test for "Cc1nc([N+](=O)[O-])nn1C12CC3CC(CC(Br)(C3)C1)C2" ?
Completion: yes

Prompt: Please state the recorded outcome for this compound: "CCSc1nnc(NC(=O)c2ccc(C)cc2)s1"
Completion: yes

New cases:
Prompt: Any idea what this test logged for "CC(C)CCC(=O)Nc1cc(S(=O)(=O)N2CCOCC2)ccc1N1CCCC1" ?
Completion: no

Prompt: Field: outcome | Entry: "COc1ccc(NC(=O)CCC(=O)Nc2nnc(C3CCCCC3)s2)cc1"
Completion: no
